biological target: Acetylcholinesterase (Homo sapiens); experiment: Inhibition of AChE (unknown origin)
Sequence (P22303 whole entry): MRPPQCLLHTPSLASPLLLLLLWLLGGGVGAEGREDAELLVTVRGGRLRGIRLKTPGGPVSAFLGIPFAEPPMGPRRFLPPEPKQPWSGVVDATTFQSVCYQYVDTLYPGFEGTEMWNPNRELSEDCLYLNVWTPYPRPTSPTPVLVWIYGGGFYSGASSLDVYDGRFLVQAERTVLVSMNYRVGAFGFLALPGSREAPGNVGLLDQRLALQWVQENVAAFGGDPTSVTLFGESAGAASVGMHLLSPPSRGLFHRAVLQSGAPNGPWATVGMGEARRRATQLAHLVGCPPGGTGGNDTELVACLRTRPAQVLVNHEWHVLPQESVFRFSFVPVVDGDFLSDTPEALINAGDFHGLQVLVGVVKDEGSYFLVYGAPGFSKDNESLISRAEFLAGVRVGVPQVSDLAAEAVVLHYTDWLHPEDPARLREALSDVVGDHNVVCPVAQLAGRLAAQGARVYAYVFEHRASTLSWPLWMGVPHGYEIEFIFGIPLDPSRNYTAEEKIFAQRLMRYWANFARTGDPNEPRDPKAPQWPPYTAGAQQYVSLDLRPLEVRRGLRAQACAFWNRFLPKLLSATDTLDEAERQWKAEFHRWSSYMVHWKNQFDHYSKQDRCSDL
readout-label: pIC50
pIC50 is a log-scale quantity: -log10 of the concentration expressed in molar.

Q: What does the record list as pIC50 for C[C@@H]1C[C@H]2CC(=O)[C@H]3CCC[N+]4([O-])CCC[C@]2(O)[C@]34C1 (stereo partly specified) ?
Ans: 6.23

----------
target: UniProt:P22303; test: Inhibition of AChE (unknown origin) using acetylthiocholine iodide as substrate by Ellman's method
readout-label: IC50

Q: Provide value of IC50 for this record tested with UniProt:P22303: C[C@@H]1C[C@H]2CC(=O)[C@H]3CCCN4CCC[C@@H]2[C@]34C1
Ans: > 100 µM

Q: Another compound to look at: C[C@@H]1C[C@H]2CC(=O)[C@H]3CCC[N+]4([O-])CCC[C@@H]2[C@]34C1 (some centres not stated)
Ans: > 100 µM
